- System: Colo205 human colon cancer cells
- Test description: In vitro cytotoxicity (MTS), Colo205
- Assay type: cell-based
- Applied conditions: COLO 205, 72 h, Colo 205 cells, GEM equivalent
Readout type: IC50

# input What value of measured IC50 is listed for Nc1ccn([C@@H]2O[C@H](CO)[C@@H](O)C2(F)F)c(=O)n1 [GEM, Gemcitabine] ?
# output ~46.4 nM

---

- Test description: Static light scattering (Rg, Nagg, shape factor)
- Assay type: physicochemical
- Applied conditions: computed from DLS and SLS data
- Experimental: Static and Dynamic Light Scattering: Static and dynamic light scattering measurements were performed on an ALV/CGS-3 goniometer system (Langen, Germany) to determine the Rh and Rg of the ATBP and ATBP-SMM nanoparticle. […] SLS and DLS were measured simultaneously at 22° C. for angles between 30°-150° at 5° increments, where the measurements at each angle was of 3 runs for 15 seconds. […] The Nagg was calculated by dividing the MW of the nanoparticles by the MW of the ATBP or ATBP-SMM conjugate. […]
Where a name gives a salt, the structure may show the parent alone.
Provide the recorded ρ (Rg/Rh) shape factor for the entries that follow.
One number for each entry.

Molecule	Readout type	Measured number
O=C1C=CC(=O)N1O [SMM 1, N-hydroxymaleimide]	ρ (Rg/Rh) shape factor	0.81

Required: ρ (Rg/Rh) shape factor, one value per molecule below.
1. CS(=O)(=O)OCCN1C(=O)C=CC1=O [SMM 3, N-2-Maleimidoethyl mesylate]
2. CCN1C(=O)C=CC1=O [SMM 6, N-ethyl maleimide]
3. Cl.NCCN1C(=O)C=CC1=O
4. O=C1C=CC(=O)N1c1ccccc1 [SMM 7, N-Phenyl maleimide]
5. CC(C)(C)N1C(=O)C=CC1=O [SMM 8, N-^tbutyl maleimide]

# output
1: 1.06; 2: 1.004; 3: 1.14; 4: 0.905; 5: 0.963

# input What value of measured ρ (Rg/Rh) shape factor is listed for CN1C(=O)C=CC1=O [SMM 5, N-methyl maleimide] ?
# output 0.978
